// endpoint IC50 / system mTor kinase (Homo sapiens (Human))
Structures can show the parent of a compound that is named as a salt.
Just the number please, in µM, no unit attached.

# value of IC50, mTor kinase (Homo sapiens (Human)), item Nc1ncc(-c2cc(N3CCOCC3)cc(S(=O)(=O)[C@H]3CCOC3)c2)cn1 = 0.54

# value of IC50, mTor kinase (Homo sapiens (Human)), item Nc1ncc(-c2cc(N3CCOCC3)cc(S(=O)(=O)C(F)(F)c3ccccc3)c2)cn1 = 1.44

# value of IC50, mTor kinase (Homo sapiens (Human)), item Nc1ncc(-c2cc(N3CCOCC3)cc(S(=O)(=O)Cc3ccc(F)cc3F)c2)cn1 = 5.3

# value of IC50, mTor kinase (Homo sapiens (Human)), item Nc1ncc(-c2cc(Oc3ccccc3Cl)cc(N3CCOCC3)n2)cn1 = 0.45

# value of IC50, mTor kinase (Homo sapiens (Human)), item Nc1ncc(-c2cc(N3CCOCC3)cc(S(=O)(=O)[C@@H]3CCOC3)c2)cn1 = 0.73

# value of IC50, mTor kinase (Homo sapiens (Human)), item COc1ccccc1Oc1cc(-c2cnc(N)nc2)nc(N2CCOCC2)c1 = 0.7

# value of IC50, mTor kinase (Homo sapiens (Human)), item CC(=O)Nc1ncc(-c2cc(N3CCOCC3)cc(S(=O)(=O)c3ccccc3)c2)cn1 = 10.9

# value of IC50, mTor kinase (Homo sapiens (Human)), item Nc1ncc(-c2cc(N3CCOCC3)cc(S(=O)(=O)Cc3ccc4[nH]ccc4c3)c2)cn1 = 6.15

# value of IC50, mTor kinase (Homo sapiens (Human)), item O=S(=O)(c1ccccc1)c1cc(-c2cnc(NC3CC3)nc2)cc(N2CCOCC2)c1 = 10

# value of IC50, mTor kinase (Homo sapiens (Human)), item Nc1ncc(-c2cc(N3CCOCC3)cc(S(=O)(=O)c3ccc(F)c(Cl)c3)c2)cn1 = 22

# value of IC50, mTor kinase (Homo sapiens (Human)), item Nc1ncc(-c2cc(N3CCOCC3)cc(S(=O)(=O)Cc3c[nH]cn3)c2)cn1 [59 (as a TFA salt)] = 4.6

# value of IC50, mTor kinase (Homo sapiens (Human)), item CC(C)(C)OC(=O)N1CC(S(=O)(=O)c2cc(-c3cnc(N)nc3)cc(N3CCOCC3)c2)C1 = 0.59
